pKi: −log10 of the molar value.
Listing of pKi toward Protein kinase C theta type (Homo sapiens), each taken from a published source.

These recorded examples may help you get a feel for the data.
{"compound": "FC(F)(F)c1ccc(NCC2CCCNC2)nc1-c1n[nH]c2ncccc12 (centres unmarked)", "pKi": "< 6.15"}
{"compound": "CC(C)C(N)[C@@H]1CCCN(c2ccc(F)c(-c3n[nH]c4ncccc34)n2)C1 (some centres unmarked)", "pKi": "> 7.30"}
{"compound": "CC(C)(O)[C@@H]1CN(c2nc(-c3n[nH]c4ncccc34)c(F)cc2Cl)CCN1", "pKi": "> 9.00"}
{"compound": "CC(C)CC1CN(c2cncc(-c3n[nH]c4ncccc34)n2)CCC1N (centres unmarked)", "pKi": "> 7.30"}
{"compound": "Fc1ccc(C2CCNCC2)nc1-c1n[nH]c2ncccc12", "pKi": "> 6.30"}

For each listed entry, give its pKi.
1. O=c1[nH]c2cnc(NCC3CCNC3)nc2n1Cc1ccccc1Cl (centres unmarked)
2. CCC[C@H]1CN(c2cccc(-c3n[nH]c4ncccc34)n2)CC(F)(F)CN1
3. CC(C)C(C)(O)C1CN(c2ccc(F)c(-c3n[nH]c4ncccc34)n2)CCN1C (centres unmarked)

["> 7.00", "> 6.30", "> 7.30"]
